target: SIRT1 (Homo sapiens); experiment: Trp mass spectrometry assay of SIRT1 activation; assay type: biochemical; details: concentration giving 150% activation of SIRT1; Trp peptide substrate
Sequence (Q96EB6 whole entry): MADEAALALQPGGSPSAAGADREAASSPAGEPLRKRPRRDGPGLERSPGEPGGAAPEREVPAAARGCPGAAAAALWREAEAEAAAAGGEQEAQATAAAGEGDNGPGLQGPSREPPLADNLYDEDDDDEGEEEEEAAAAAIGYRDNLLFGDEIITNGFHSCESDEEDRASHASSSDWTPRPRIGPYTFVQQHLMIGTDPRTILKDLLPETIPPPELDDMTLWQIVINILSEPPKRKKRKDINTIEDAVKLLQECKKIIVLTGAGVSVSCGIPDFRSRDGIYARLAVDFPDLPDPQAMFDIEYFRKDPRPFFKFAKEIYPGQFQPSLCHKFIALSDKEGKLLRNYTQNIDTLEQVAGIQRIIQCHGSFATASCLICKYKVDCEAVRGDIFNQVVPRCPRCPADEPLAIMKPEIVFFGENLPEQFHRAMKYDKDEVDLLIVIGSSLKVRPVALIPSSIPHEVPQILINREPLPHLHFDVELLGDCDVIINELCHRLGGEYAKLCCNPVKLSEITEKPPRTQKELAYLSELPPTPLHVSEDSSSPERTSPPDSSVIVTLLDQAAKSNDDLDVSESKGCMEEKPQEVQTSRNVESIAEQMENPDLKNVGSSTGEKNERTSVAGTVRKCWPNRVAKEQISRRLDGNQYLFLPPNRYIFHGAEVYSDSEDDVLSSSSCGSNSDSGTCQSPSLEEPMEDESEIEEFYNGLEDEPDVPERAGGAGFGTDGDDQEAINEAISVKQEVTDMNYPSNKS
readout: Tryp AVG EC1.5 (μM)

compound="CCc1nnc(NC(=O)N2c3nc(-c4cccc(C(F)(F)F)c4)ccc3N3CC[C@H]2C3)s1 [Example 647]" experimental_value="A (A (EC1.5<1 μM))"
compound="[N-]=[N+]=NCc1cc(N=[N+]=[N-])cc(-c2ccc3c(n2)N(C(=O)Nc2cnccn2)[C@H]2CCN3C2)c1 [Example 808]" experimental_value="A (A (EC1.5<1 μM))"
compound="COc1cc(NC(=O)N2c3nc(-c4cccc(Cl)c4)ccc3N3C[C@@H](O)[C@H]2C3)nc(OC)n1 [Example 680]" experimental_value="B (B (EC1.5 1-25 μM))"
compound="Cc1cncc(NC(=O)N2c3nc(-c4cccc(Cl)c4)ccc3N3C[C@@H](O)[C@H]2C3)c1 [Example 676]" experimental_value="A (A (EC1.5<1 μM))"
compound="O=C(Nc1cnccn1)N1c2nc(-c3cncc(C(F)(F)F)c3)ccc2N2C[C@@H](O)[C@H]1C2 [Example 695]" experimental_value="B (B (EC1.5 1-25 μM))"

Asked: Dear colleague, I am looking for the recorded Tryp AVG EC1.5 (μM) of the following compound: O=C(Nc1nnc(-c2ccccc2)o1)N1c2nc(-c3cccc(C(F)(F)F)c3)ccc2N2CC[C@H]1C2 [Example 719]
Given back: A (A (EC1.5<1 μM))

Asked: What do we get for O=C(Nc1nccc(N2CCNCC2)n1)N1c2nc(-c3cccc(C(F)(F)F)c3)ccc2N2CC[C@H]1C2 [Example 745] ?
Given back: B (B (EC1.5 1-25 μM))

Asked: What do we get for CS(=O)(=O)c1cccc(-c2ccc3c(n2)N(C(=O)Nc2cc(-c4cnco4)ccn2)[C@H]2CCN3C2)c1 [Example 723] ?
Given back: A (A (EC1.5<1 μM))

Asked: What do we get for CC(C)(C)c1nnc(NC(=O)N2c3nc(-c4cccc(C(F)(F)F)c4)ccc3N3CC[C@H]2C3)s1 [Example 649] ?
Given back: B (B (EC1.5 1-25 μM))

Asked: What do we get for O=C(Nc1nnc(-c2ccccc2)s1)N1c2nc(-c3cccc(C(F)(F)F)c3)ccc2N2CC[C@H]1C2 [Example 648] ?
Given back: A (A (EC1.5<1 μM))
